system: LYPLA1; assay: LYPLA1 enzyme kinetics with inhibitors – biochemical, substrate-based fluorescence, Ki, Km, late-stage follow-up (AID 651998); conditions: recombinant LYPLA1, resorufin acetate hydrolysis fluorescence, Ki from Cheng-Prusoff
assay.readout: Ki (µM)
Numbers only, in µM.

Identify measured Ki associated with `O=C(CN1CCN(C(=O)c2ccco2)CC1)Nc1cc(C(F)(F)F)ccc1Cl`
0.3
